biological target: Tumor necrosis factor (Homo sapiens, UniProt P01375); test: Binding affinity to recombinant TNF-alpha (unknown origin) assessed as dissociation constant incubated for 10 mins by MST assay
Sequence (P01375 whole entry): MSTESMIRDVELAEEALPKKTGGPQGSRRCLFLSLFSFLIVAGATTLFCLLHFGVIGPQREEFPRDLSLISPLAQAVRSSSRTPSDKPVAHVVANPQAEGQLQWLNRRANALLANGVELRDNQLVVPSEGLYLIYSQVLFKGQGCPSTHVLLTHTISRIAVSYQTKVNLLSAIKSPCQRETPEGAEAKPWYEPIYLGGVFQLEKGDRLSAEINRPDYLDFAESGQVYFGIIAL
pKd: −log10 of the molar value. Peptide text beside a SMILES is read from it.
Reported pKd values are given for each entry in this list.
Recorded Endpoint: pKd

Molecule	Reported Measurement
C[C@H](N)C(=O)N[C@@H](CS)C(=O)N[C@@H](C)C(=O)N[C@@H](C)C(=O)N[C@@H](Cc1c[nH]c2ccccc12)C(=O)N[C@@H](C)C(=O)N1CCC[C@H]1C(=O)N[C@H](C(=O)N[C@@H](CCCNC(=N)N)C(=O)O)[C@@H](C)O (H-ACAAWAPTR-OH)	3.64
C[C@H](N)C(=O)N[C@@H](CS)C(=O)N[C@@H](Cc1cnc[nH]1)C(=O)N[C@@H](C)C(=O)N[C@@H](Cc1c[nH]c2ccccc12)C(=O)N[C@@H](C)C(=O)N1CCC[C@H]1C(=O)N[C@H](C(=O)N[C@@H](CCCNC(=N)N)C(=O)O)[C@@H](C)O (H-ACHAWAPTR-OH)	5.29
C[C@H](N)C(=O)N[C@@H](CS)C(=O)N[C@@H](Cc1c[nH]cn1)C(=O)N[C@@H](C)C(=O)N[C@@H](Cc1c[nH]c2ccccc12)C(=O)N[C@@H](C)C(=O)N1CCC[C@H]1C(=O)N[C@@H](C)C(=O)N[C@@H](CCCNC(=N)N)C(=O)O (H-ACHAWAPAR-OH)	4.74
C[C@H](N)C(=O)N[C@@H](CS)C(=O)N[C@@H](Cc1c[nH]cn1)C(=O)N[C@@H](C)C(=O)N[C@@H](C)C(=O)N[C@@H](C)C(=O)N1CCC[C@H]1C(=O)N[C@H](C(=O)N[C@@H](CCCNC(=N)N)C(=O)O)[C@@H](C)O (H-ACHAAAPTR-OH)	3.25
C[C@H](N)C(=O)N[C@@H](CS)C(=O)N[C@@H](Cc1c[nH]cn1)C(=O)N[C@@H](C)C(=O)N[C@@H](Cc1c[nH]c2ccccc12)C(=O)N[C@@H](C)C(=O)N[C@@H](C)C(=O)N[C@H](C(=O)N[C@@H](CCCNC(=N)N)C(=O)O)[C@@H](C)O (H-ACHAWAATR-OH)	5.04

Where these numbers come from: ChEMBL document CHEMBL5338783
